Catalogue of folding stability dG unfold readings, one per entry.
TEST: folding stability dG unfold from trypsin proteolysis; higher = more stable
Give just the numeric value; kcal/mol need not be written.

Recorded results for 6 sequences are shown here.
1) SAGGSAGGSAEVPKPGEAKPVLVTSSFTIPLPNGGTLEITTVDLVDVATGTVTPRVEVRSLDSAGGSAGGSA [r18_123_TrMRF]; -0.786
2) SAGGMTEELEITTPDNYKIKITKTLNPNTTKPTYTVKIYEKKSGKVLLEKEFSSLEEAEEFIKNGYGSAGGS [r8_450_TrMRF]; 4.73
3) SAGGEPIKIKIDSVQEQPNPDGGPYLYVKITYPDGGRQTGMFDSPEDFKSQLEGEPGFKKIEIEPIRSAGGS [r16_757_TrROS]; -0.839
4) SAGGSAGGSAKIRLIFKTEEEARKAIEALLPEGAKAKIKVEKRKDGKKYVVVEIEFKEEEESAGGSAGGSAG [r3_87_TrROS_Hall]; 3.58
5) SSISIPGLTEEKAAELAKRLRELFPGAEVKTTTFPEKKVVVVDVTLPVVDADGKLVGTVKLRLVLVVEDDSA [r9_378_TrMRF]; 4.6
6) SAGGSAGGSDPSATISFSFPLPDGSTININITITDEGSGPRIEIDITVTDANNNTAPAKFTIDSAGGSAGGS [r12_33_TrMRF]; 1.58

Notebook: SAGGSAGGSGGVIDIPVYGEDGEKFIASAPKEVIEKAIKEGKPIEVYVVDDGKIIKKFTISTGSAGGSAGGS [r12_991_TrMRF] , folding stability dG unfold read as -0.0801

###

Catalogue of folding stability dG unfold readings, one per entry.
TEST: folding stability dG unfold from trypsin proteolysis; higher = more stable

Recorded results for 2 sequences are shown here.
1. SAGGIEDIANEFGIEDVEIEEINPEYNEVTVTFRFRGPNGNPFTWTYTIEVPPPPPPEPKMDPEDNNNSAGG [r13_608_TrROS]; 1.06 kcal/mol
2. SAGGPKKAIEILKKEGFTIKSVDPKKKKVIATPKETDIPIEIYVIGDDKVLIVEYLKGKPIIKEFKKSAGGS [r16_197_TrMRF]; 0.834 kcal/mol

Notebook: SAGSLEKVTESSTSSDKVEVTTTTLTPLSNPSVPVQYVKTTTTTTLIDPATGKTLSTTTTTTTTPLPAASAG [r5_300_JUSTAS] , folding stability dG unfold read as -0.0274 kcal/mol

Notebook: SAGGSAGGSKGPMITITLFILVRPDDGKYYATVIEMYIYPNGGIDIEMEMIPADDIPPGDIVISAGGSAGGS [r12_38_TrROS] , folding stability dG unfold read as 2.94 kcal/mol

Notebook: SKVKIVKVEYDKETNVVTVTIYDEKTKKKIEIRYTPGKVEIVVEIDGKKLVLKFKTKEEALEAAKKLLKKSA [r9_527_TrROS_Hall] , folding stability dG unfold read as 2.72 kcal/mol

Notebook: SAGGSAKIEITIFIPGMSEEEVKKLAEELAEELRKKGLSDEEIKEIKIKVYKVPVYKTEDGKLVKVSAGGSA [r15_684_TrROS_Hall] , folding stability dG unfold read as 0.884 kcal/mol

Notebook: SAGGSAGGSMVITVDPSLSPEEAVERAKEEVKKEVPESEPVEVTVVIKDPETGKTTEIPVKLDSAGGSAGGS [r12_1051_JUSTAS] , folding stability dG unfold read as 0.739 kcal/mol

###

TEST: folding stability dG unfold from trypsin proteolysis; higher = more stable
PARAMETER: folding stability dG unfold
Answer as a quantity: numeral, then unit.

Recorded results for 5 sequences are shown here.
1. SAGGSAGGSAMKIVKITTTQLPNGTTKVTVTFSDGSTKTVTIPPNQPGKSAEEVAKKVLLESAGGSAGGSAG [r3_368_JUSTAS]; 1.8 kcal/mol
2. SAGGSAGGSADIELLGESVDPATGRSSKTFQAPGKIIVETTAPDGTKTTSVVDPNSNVTIPLSAGGSAGGSA [r18_230_JUSTAS]; -0.522 kcal/mol
3. SIYIMLPVPPGKPYKLSIEIEMPDNGRPYEYDGTFNPENGWVMFPVRFPDNGHPIPPEDFKVKVELEPPKSA [r9_928_TrROS]; 1.42 kcal/mol
4. SAGGSAGGSAGMKIEKNKDGKLRIIIYNKNGKKVKEIEMSVEEAKKLAEKNNFEIVKIEPSAGGSAGGSAGG [r11_521_TrROS_Hall]; 1.02 kcal/mol
5. SAGGKNVKKYVPIEIEIEAPSPEVAEATAEEIEKIIREKFPGAKVEVEMEPLPDGGYKLKVKVYVPVGSAGG [r13_17_TrMRF]; 1.82 kcal/mol

Notebook: SAGGMEEIVKALPPEAGVVEIESEPLPLEDSILRRYRLRVYNPATGKWEELEVLIEYDKDGNIRRIVASAGG [r13_358_TrMRF] , folding stability dG unfold read as 2.5 kcal/mol

Notebook: SAGGSAGGSAGGQTIVIDSRLLRTALENGDLEKLKALVEEAGYNPENAKIYLITPEELKESAGGSAGGSAGG [r7_3_TrMRF] , folding stability dG unfold read as -0.133 kcal/mol

###

TEST: folding stability dG unfold (combined trypsin and chymotrypsin); higher = more stable
PARAMETER: folding stability dG unfold (kJ/mol)
Give just the numeric value; kJ/mol need not be written.

Recorded results for 3 sequences are shown here.
1) SDMKIRIDDIDIQPLDEDGQPITINYKIEFGGQPVYFQIEIWVKPDGPVVIKIDIYNPDNGKPFEWTFPISA [r9_241_TrROS]; 10.4
2) SAGGKTIYFPISEARNFLKEAIDNGLDNIRIEVFNGDKPREIDIPPGNLDDLIDNIPPNSWVQIEPKSAGGS [r16_636_TrROS]; 0.925
3) SAGRPPEALREEVSEETITIPVPSTDSDEAPALTTKVTKTTTRLPTPVTTTTTTTTYPDGTTTTTTTAASAG [r5_580_JUSTAS]; -0.255

Notebook: SAGGSAGGSADNPQVERTIHDPNGGFKVMINPNDNSIEIWPYKNDKPEPKTFDSPEALDDISAGGSAGGSAG [r3_426_TrROS] , folding stability dG unfold read as -1.62

Notebook: SAGGSASSMTTTKKLSTGEKSVVELSTSPSTVTLVTTDPETGTVTVTTYTPSGTGPVATTTTVPAPSAGGSA [r15_137_JUSTAS] , folding stability dG unfold read as 0.741

Notebook: SETVEIEIELPDGTKVTITVDKDGKVHITIEVPEDNPELLEKGSIEELAKKLAEELGLSEKDVEVTVLPPSA [r9_401_TrROS_Hall] , folding stability dG unfold read as 11.7

###

Catalogue of folding stability dG unfold readings, one per entry.
TEST: folding stability dG unfold (combined trypsin and chymotrypsin); higher = more stable
Give just the numeric value; kcal/mol need not be written.

Recorded results for 4 sequences are shown here.
1. SAGGSAGGSPGKPKTIPVEMVFFNPEDGYFFEMRSEIYVPPDGNLQIDISIELYPVPPNAPLISAGGSAGGS [r12_116_TrROS]; 1.84
2. SAGGKYKIVEITIKVEPGQSPEEIAAEIAKKLAPPGEKVKVKVEKKDGYLRIYIINEETGEVVEEFELSAGG [r13_724_TrROS_Hall]; 1.88
3. SMKIYKTKEEAEKAAKETGKKVIVIKKGMSLEELLELLKKLKGLKEGQKVILVIQNEDGETYVIVLEIKPSA [r9_314_TrROS_Hall]; 1.74
4. SAGGMPTTSSSAVKLDGGSDSVTTTTLPDGSRVVYIVSSDGKVYKATVTGGTTTWTEVKTVPPAELSSAGGS [r16_48_JUSTAS]; 2.13

Turning now to a further sequence:
Notebook: SKGKKTVTINFMLKVEDPEDLPPGQEVKIPPEFIDFLRDQGFKITEIKIRVVPPPDGDVYVMFSSTIEVDSA [r9_465_TrROS] , folding stability dG unfold read as 2.88

###

TEST: folding stability dG unfold from chymotrypsin proteolysis; higher = more stable
Catalogue of folding stability dG unfold readings, one per entry.
Give just the numeric value; kcal/mol need not be written.

1) SAGGSAGGSFEILEVHPVKDGWLMIVVRTPGKMKVITIPPDDLDEIPGLDDIAIFPVKDGEPISAGGSAGGS [r12_343_TrROS]; 1.65
2) SAGGSAGNPKPVVLEVEVVLDIPPENPDVLRAQAEAVARALAKPGLRVEVLDYDPDKAAFTIRITGSAGGSA [r15_563_TrMRF]; 1.84
3) SAGGEKTLTVEYNPEDDYLTFTLTLTRPGYDPVTGKPREYKVTLTFTVPLNEATPEHVKLALEIYEKDSAGG [r13_980_TrMRF]; 4.71
4) SAGGSAGGSDLPIKIKMEPIPPGMPPGQVYRMEIEIPNGWVIRYSFYFTGGKLEFEPMEIKPVSAGGSAGGS [r12_1049_TrROS]; 3.58
5) SAGGSAVGYYVETEIEKVEEKTYTFKPDGSPLKYFKNVKKNIKVKKVYVVKPTPDNSVIVDPNIPLSAGGSA [r15_162_JUSTAS]; -0.618

Notebook: SAGGSAGGMTIEEKAEELEEELKKKYPDMEVKVEVDPEKGIVKITITDPKNPGKTTELTFPVEESAGGSAGG [r6_478_JUSTAS] , folding stability dG unfold read as 2.23

Notebook: SAGGSAGGSAGGSDPSMSLETFVIPESTSTVTLTDPSGTLRTLTTGRDPLTLTEVLPPRSAGGSAGGSAGGS [r4_162_JUSTAS] , folding stability dG unfold read as 0.459

Notebook: SAGGSAGGSAGGEKIIKVHPDNIEAFLKEAKEKGYKVILFPNGEAIVNGKKVKIISDPKSAGGSAGGSAGGS [r10_930_TrMRF] , folding stability dG unfold read as 1.73

Notebook: SAGLNIPPEMTVDELVEFLKSLGVKSYKVEKTEDPESYVVTFEFPDFTVVMTFHPDSVTITVVPKDEPLSAG [r5_899_TrMRF] , folding stability dG unfold read as 3.52
